Reported pIC50 values, ROCK2 (Homo sapiens).
pIC50: −log10 of the molar value.
MEASUREMENT NAME: pIC50

- MOLECULE: "O=C(NC1CC2(C1)CC(c1n[nH]c(=O)c3ccccc13)C2)c1cnn2cc(N3CC(F)(F)C3)ccc12 (stereo not drawn)"
  MEASUREMENT NAME: "pIC50"
  MEASURED RESULT: "8.70 to 9.70"
- MOLECULE: "[H][C@]1(c2n[nH]c(=O)c3ccccc32)C[C@]2(C[C@@H](NC(=O)C3CCc4ccccc43)C2)C1 (stereo partly drawn)"
  MEASUREMENT NAME: "pIC50"
  MEASURED RESULT: "5.68 to 7.00"
- MOLECULE: "COc1ccn2ncc(C(=O)NC3CC4(C3)CC(c3n[nH]c(=O)c5ccccc35)C4)c2c1 (stereo not drawn)"
  MEASUREMENT NAME: "pIC50"
  MEASURED RESULT: "7.82 to 8.29"
